Origin of measurements: paper PMC5540273

System: RIOK2
experimental parameters: concentration: 1 μM, replicates: in singlicate; n = 1;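 further: KINOMEscan kinase panel screen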
Criterion: %Inh strictly under 7%. Met: true (1). Not met: false (0).

* COc1ccc(S(=O)(=O)NC2CCN(c3cc(C)nc(Nc4cccc(C#N)c4)n3)CC2)cc1.O=C(O)C(F)(F)F | true (1)
* O=c1cc(N2CCOCC2)nc2n(Cc3cccc(Cl)c3Cl)c(C3CC3)nn12 | false (0)
* O=C(Nc1n[nH]c2cc(-c3cccc(F)c3)ccc12)C1CC1 | false (0)
* CNc1ncnc2[nH]ncc12 | true (1)
* Cc1cccc(Cn2ccn3c(=O)cc(N4CCOCC4)nc23)c1 | false (0)
* Cc1c(Cn2c(C)nn3c(=O)cc(N4CCOC(C)C4)nc23)cccc1C(F)(F)F (centres unmarked) | false (0)
* CCn1cnc2c(N)ncnc21 | true (1)

----------
Let's look at some compounds and their measured %Inh.
Tested on: PKAC-beta
Construct: gene PRKACB
experimental parameters: concentration: 1 μM, replicates: in singlicate; n = 1
result type: %Inh (%)

* c1ccc(-c2n[nH]cc2-c2ccnc3ccccc23)nc1 | 14
* O=c1cc(N2CCOCC2)nc2n(Cc3cccc(Cl)c3Cl)c(C3CC3)nn12 | 5
* Fc1ccc(-c2ncn(CCCN3CCOCC3)c2-c2ccccn2)cc1 | 32
* c1ccc(-c2cc(-c3c[nH]nc3-c3ccccn3)ccn2)cc1 | 0
* COc1ccc(S(=O)(=O)NC2CCN(c3cc(C)nc(Nc4cccc(C#N)c4)n3)CC2)cc1.O=C(O)C(F)(F)F | 0
* Cl.Nc1ncnc2occ(-c3ccc(NC(=O)Nc4cc(C(F)(F)F)ccc4F)cc3)c12 | 0
* COCCNC(=O)c1ccc(-c2cc(C(=O)NC3CC3)cc(F)c2C)cc1 | 37
* CN1c2ccc(NCc3ccc(F)cc3)cc2-c2c(cnn2C)S1(=O)=O | 0
* CN(C1=C(c2ccccc2)C(=O)NC1=O)c1ccccc1 | 0
* Fc1ccc(-c2nn3c(OCC(F)(F)F)cccc3c2-c2ccncc2)cc1 | 32
* CC(C)(C)n1cnc2c(N)ncnc21 | 20

----------
System: CAMK1
experimental parameters: concentration: 1 μM, replicates: in singlicate; n = 1
result type: %Inh

- NS(=O)(=O)c1cccc(-c2ccc3ncc(N4CCOCC4)nc3c2)c1: 12%
- O=C(NCCNc1ccnc(Nc2ccc(F)cc2)n1)Nc1ccccc1F: 0%
- O=C(NOCC1CC1)c1ccc(F)c(F)c1Nc1ccc(I)cc1Cl: 0%
- N#Cc1ccc(-c2cc(-c3c[nH]nc3-c3ccccn3)ccn2)cc1: 1%
- NS(=O)(=O)CCc1cccc(Nc2nccc(-c3c(-c4cccc(NC(=O)c5c(F)cccc5F)c4)nn4ccccc34)n2)c1: 53%
- Nc1nc(-c2ccc3c(N)n[nH]c3c2)cc(N2CCCC2)n1: 25%
- CC(C)(C)n1cnc2c(N)ncnc21: 0%
- CCCCCc1nc2c(N)ncnc2n1CCCCC: 0%
- COc1ccc(COc2cc(-n3cnc4ccccc43)sc2C(N)=O)cc1: 7%
- O=C(NCCNc1ccnc(Nc2ccc(F)cc2)n1)c1cc2ccccc2s1: 1%
- Cc1cn2c(=O)cc(N3CCOCC3)nc2n1Cc1cccc(Cl)c1Cl: 12%
- C[C@@H](Oc1cc(-n2cnc3ccc(NC(=O)NC(C)(C)C)cc32)sc1C(N)=O)c1ccccc1Cl: 11%
- NS(=O)(=O)c1cccc(-c2ccc3nccc(-c4cccc(S(N)(=O)=O)c4)c3c2)c1: 0%
- Cc1nnc(-c2ccc3occ(-c4ccc(C(C)O)cc4)c3c2)o1 (stereo not drawn): 12%
- CN(C1=C(c2ccccc2)C(=O)NC1=O)c1ccccc1: 6%
- COC(=O)Nc1nc2cc(Oc3ccc(NC(=O)Nc4cc(F)ccc4F)cc3)ccc2[nH]1.Cl: 4%
- Fc1ccc(-c2ncn(CCCN3CCOCC3)c2-c2ccccn2)cc1: 0%
- COc1cc2ncn(-c3cc(OCc4sccc4Cl)c(C(N)=O)s3)c2cc1OC: 4%
- c1ccc(-c2cc(-c3c[nH]nc3-c3ccccn3)ccn2)cc1: 14%
- Cc1c2ccc(N(C)c3ccnc(Nc4cccc(S(N)(=O)=O)c4)n3)cc2nn1Cc1ccccc1.Cl.Cl: 2%
- Cc1ccc(C(=O)NCC(N)=O)cc1-n1c(C)cc(OCc2ccc(F)cc2F)c(Br)c1=O: 44%

----------
System: MST1R
experimental parameters: concentration: 1 μM, replicates: in singlicate; n = 1
result type: %Inh

- COc1ccc(S(=O)(=O)NC2CCN(c3cc(C)nc(Nc4cccc(C#N)c4)n3)CC2)cc1.O=C(O)C(F)(F)F: 48%
- COc1ccc(COc2cc(-n3cnc4ccccc43)sc2C(N)=O)cc1: 25%
- O=C1Cc2cc(Nc3nc(NCc4cccc(S(=O)(=O)C(F)(F)F)c4)ncc3C(F)(F)F)ccc2N1: 0%
- Cn1ccc2ncnc(Oc3ccc(NC(=O)Nc4ccncc4)c(Cl)c3)c21: 17%
- NS(=O)(=O)CCc1cccc(Nc2nccc(-c3c(-c4cccc(NC(=O)c5c(F)cccc5F)c4)nn4ccccc34)n2)c1: 62%
- Cl.Nc1ncnc2occ(-c3ccc(NC(=O)Nc4cc(C(F)(F)F)ccc4F)cc3)c12: 28%
- CC(C)Oc1ccc2c(-c3ccnc(Nc4ccc(N5CCN(C)CC5)cc4)n3)cnn2n1: 0%
- COc1ccc(CNC(=O)NC2CCN(c3ccnc(Nc4ccc(OC)cc4)n3)C2)cc1 (stereo not drawn): 40%
- O=c1cc(N2CCOCC2)nc2n(Cc3cccc(Cl)c3Cl)c(C3CC3)nn12: 14%

----------
Let's look at some compounds and their measured %Inh.
Test system: PIP5K1A
experimental parameters: concentration: 1 μM, replicates: in singlicate; n = 1
result type: %Inh (%)

- Cc1nnc(-c2ccc(C)c(-c3ccc(C(=O)Nc4ccc(NS(C)(=O)=O)cc4)cc3)c2)o1: 52
- Fc1ccc(-c2ncn(CCCN3CCOCC3)c2-c2cccnc2)cc1: 5
- COc1ccc(CNC(=O)NC2CCN(c3ccnc(Nc4ccc(OC)cc4)n3)C2)cc1 (stereo not shown): 0
- O=c1cc(N2CCOCC2)nc2n(Cc3cccc(F)c3)ccn12: 0
- O=C1Cc2cc(Nc3nc(NCc4cccc(S(=O)(=O)C(F)(F)F)c4)ncc3C(F)(F)F)ccc2N1: 13
- Cc1ccc(C(=O)NCC(N)=O)cc1-n1c(C)cc(OCc2ccc(F)cc2F)c(Br)c1=O: 14
- O=C(NCCNc1ccnc(Nc2ccc(F)cc2)n1)c1cc2ccccc2s1: 0

----------
Test system: JNK3
Construct: gene MAPK10
experimental parameters: concentration: 1 μM, replicates: in singlicate; n = 1
Criterion: %Inh strictly under 4%. Met: yes. Not met: no.

• Cc1cccc(Cn2ccn3c(=O)cc(N4CCOCC4)nc23)c1 [GSK2297542] = no
• CSc1ccc(-c2cc3ncnc(SCC(=O)O)c3s2)cc1 = yes
• CNc1ncnc2[nH]ncc12 [SKF-18355] = yes
• O=C(Nc1cccc(-c2nn3ncccc3c2-c2ccnc(Nc3cccc(C(F)(F)F)c3)n2)c1)c1c(F)cccc1F [GSK299495] = no
• N#Cc1c(N2CCOCC2)sc(-c2ccn[nH]2)c1-c1ccc(Cl)cc1 = no
• Cl.Nc1ncnc2occ(-c3ccc(NC(=O)Nc4cc(C(F)(F)F)ccc4F)cc3)c12 [SB-707548] = no
• C[C@@H](Oc1cc(-n2cnc3ccc(NC(=O)NC(C)(C)C)cc32)sc1C(N)=O)c1ccccc1Cl [GSK346294] = yes
• COc1ccc(S(=O)(=O)NC2CCN(c3cc(C)nc(Nc4cccc(C#N)c4)n3)CC2)cc1.O=C(O)C(F)(F)F [GSK1653539] = no
• O=C(NCCNc1ccnc(Nc2ccc(F)cc2)n1)Nc1ccccc1F [GSK1379880] = no
• Cc1nnc(-c2ccc3occ(-c4ccc(C(C)O)cc4)c3c2)o1 (stereo not drawn) = yes
• Cl.Oc1cccc(Nc2ccnc3cc(-c4ccncc4)ccc23)c1 [GW494601] = no

----------
Let's look at some compounds and their measured %Inh.
Tested on: CLK3
experimental parameters: concentration: 1 μM, replicates: in singlicate; n = 1
result type: %Inh (%)

* COc1ccc(Nc2ncc(C#N)c(Nc3ccccc3C(N)=O)n2)cc1N1CCN(C)CC1.Cl | 85
* COc1cc2c(cc1OC[C@@H](O)CO)ncc1c3ccc(C#N)cc3[nH]c21 | 2
* O=C(NCCNc1ccnc(Nc2ccc(F)cc2)n1)c1cc2ccccc2s1 | 26
* O=C(c1ccc(-c2cc(-c3c[nH]nc3-c3ccccn3)ccn2)cc1)N1CCOCC1 | 0
* Fc1ccc(-c2nn3c(OCC(F)(F)F)cccc3c2-c2ccncc2)cc1 | 0
* Cc1cccc(-c2nc(-c3ccc(S(C)(=O)=O)cc3)sc2-c2ccncc2)c1 | 0
* O=c1cc(N2CCOCC2)nc2n(Cc3cccc4ccccc34)ccn12 | 0
* CN(C1=C(c2ccccc2)C(=O)NC1=O)c1ccccc1 | 0
